- EXPERIMENT: Pharmacokinetic study in mice (plasma, NCA)
- RUN_CONDITIONS: mouse, intravenous, 400 nmol/kg
ENDPOINT_LABEL: clearance (mL/min/kg)
Please reply with the bare figure in mL/min/kg and do not write the unit itself.

Exam item: Consider the compound shown here: `CCCCCC(=O)N[C@H]1CSCc2cc(CSCCNC(=O)CN3CCN(CC(=O)O)CCN(CC(=O)O)CCN(CC(=O)O)CC3)cc(c2)CSC[C@@H](C(=O)O)NC(=O)[C@H](Cc2ccccc2)NC(=O)[C@H](CCC(N)=O)NC(=O)[C@H]([C@@H](C)O)NC(=O)[C@@H]2CCCN2C(=O)[C@@H]2CCCN2C1=O` What is its recorded clearance?
Marked response: 12.5

* * *

- SYSTEM_TESTED: FAP-expressing human WI-38 fibroblasts (Homo sapiens)
ENDPOINT_LABEL: IC50

C[C@@H](O)[C@@H]1NC(=O)[C@@H]2CCCN2C(=O)[C@@H]2CCCN2C(=O)[C@@H](NC(=O)NC2CCCC2)CSCc2cc(CSCCNC(=O)CN3CCN(CC(=O)O)CCN(CC(=O)O)CCN(CC(=O)O)CC3)cc(c2)CSC[C@@H](C(=O)O)NC(=O)[C@H](Cc2ccccc2)NC(=O)[C@H](CCC(N)=O)NC1=O ... 10 to 79.4 nM

Would you kindly look at the next entry?
Exam item: Give the measured IC50 of CCCCNC(=O)N[C@H]1CSCc2cc(CSCCNC(=O)CCP(=O)(O)CN3CCN(CP(=O)(O)CO)CCN(CP(=O)(O)CO)CC3)cc(c2)CSCC(C(=O)O)NC(=O)[C@H](Cc2ccccc2)NC(=O)[C@H](CCC(N)=O)NC(=O)[C@H]([C@@H](C)O)NC(=O)[C@@H]2CCCN2C(=O)[C@@H]2CCCN2C1=O (some centres unmarked) .
Marked response: < 10 nM

* * *

Reported pIC50 values, FAP-expressing human WI-38 fibroblasts (Homo sapiens, UniProt Q12884).
pIC50: −log10 of the molar value. Numbered stars: 1 amine (or outer) side, 2 acyl side, 3 side chain; on linkers, the order of the positions; unused ones are H or OH. Bridge positions count the residues as written; N and C are the ends. Square brackets hold non-standard residues; d marks the D form. Peptide text beside a SMILES is read from it. * marks the point of attachment. X1 = NCCNCC(CNCCN)C(=O)N1CCN(CC(=O)NCCCOCCOCCOCCCN*)CC1; mXylylene = c1cc(C[*:1])cc(C[*:2])c1; Tic = O=C(O)[C@@H]1Cc2ccccc2CN1; Suc = O=C(CCC(=O)[*:2])[*:1]; Nle = CCCC[C@H](N)C(=O)O; Hexanoyl = CCCCCC(=O)*; βAla = NCCC(=O)O

Consider the following illustrative entries.
CCCCCC(=O)N[C@H]1CSCc2cccc(c2)CSC[C@@H](C(N)=O)NC(=O)[C@@H]2Cc3ccccc3CN2C(=O)[C@H](CCC(=O)O)NC(=O)[C@H]([C@@H](C)O)NC(=O)[C@@H]2CCCN2C(=O)[C@@H]2CCCN2C1=O [3BP-3359] (Hexanoyl-CPPTE[Tic]C-NH2; linker 1-7 via mXylylene) ... < 6.00
CCCC[C@H](NC(=O)CCC(=O)NCCCOCCOCCOCCCNC(=O)CN1CCN(C(=O)C(CNCCN)CNCCN)CC1)C(=O)N[C@H]1CSCc2cccc(c2)CSC[C@@H](C(=O)NCCC(=O)O)NC(=O)[C@H](Cc2ccccc2)NC(=O)[C@H](CCC(=O)O)NC(=O)[C@H]([C@@H](C)O)NC(=O)[C@@H]2CCCN2C(=O)[C@@H]2CCCN2C1=O [3BP-4784] ({X1-Suc}-[Nle]CPPTEFC[βAla]-OH; linker 2-8 via mXylylene) ... > 8.00

Then there is this compound:
Exam item: Look up pIC50 with FAP-expressing human WI-38 fibroblasts (Homo sapiens, UniProt Q12884) for this compound: CCCC[C@H](NC(=O)CCC(=O)NCCCOCCOCCOCCCNC(=O)CN1CCN(C(=O)C(CNCCN)CNCCN)CC1)C(=O)N[C@H]1CSCc2cccc(c2)CSCC(C(=O)O)NC(=O)[C@H](Cc2ccccc2)NC(=O)[C@H](CCC(N)=O)NC(=O)[C@H]([C@@H](C)O)NC(=O)[C@@H]2CCCN2C(=O)[C@@H]2CCCN2C1=O (stereo partly drawn) [3BP-4541]
Sequence (Q12884 whole entry): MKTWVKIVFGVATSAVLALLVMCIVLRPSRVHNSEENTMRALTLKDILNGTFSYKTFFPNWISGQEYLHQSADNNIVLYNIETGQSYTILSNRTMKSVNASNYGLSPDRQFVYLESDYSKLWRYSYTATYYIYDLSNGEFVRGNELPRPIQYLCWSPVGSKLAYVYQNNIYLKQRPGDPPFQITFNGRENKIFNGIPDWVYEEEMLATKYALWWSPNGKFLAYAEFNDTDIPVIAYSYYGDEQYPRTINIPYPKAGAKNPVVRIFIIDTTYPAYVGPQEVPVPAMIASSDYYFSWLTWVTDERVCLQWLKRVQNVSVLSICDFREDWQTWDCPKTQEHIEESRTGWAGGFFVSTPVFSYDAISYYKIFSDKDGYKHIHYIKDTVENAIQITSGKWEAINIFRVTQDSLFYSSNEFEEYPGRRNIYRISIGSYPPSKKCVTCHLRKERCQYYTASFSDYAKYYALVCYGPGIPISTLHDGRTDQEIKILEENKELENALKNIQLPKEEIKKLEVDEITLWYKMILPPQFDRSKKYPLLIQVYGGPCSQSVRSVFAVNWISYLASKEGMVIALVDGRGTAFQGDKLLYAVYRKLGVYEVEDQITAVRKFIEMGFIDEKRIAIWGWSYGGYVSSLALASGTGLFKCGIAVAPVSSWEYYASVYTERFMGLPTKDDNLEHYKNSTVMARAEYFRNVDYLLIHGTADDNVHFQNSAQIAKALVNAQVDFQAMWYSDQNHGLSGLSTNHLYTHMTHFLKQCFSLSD
Marked response: 7.10 to 8.00

* * *

- RUN_CONDITIONS: 24 h incubation, 37° C.
Numbered stars: 1 amine (or outer) side, 2 acyl side, 3 side chain; on linkers, the order of the positions; unused ones are H or OH. Bridge positions count the residues as written; N and C are the ends. Peptide text beside a SMILES is read from it. * marks the point of attachment. X13 = O=C(O)CN1CCN(CC(=O)O)CCN(CC(=O)N2CCN(Cc3cc(C[*:1])cc(C[*:2])c3)CC2)CCN(CC(=O)O)CC1; Hexanoyl = CCCCCC(=O)*
ENDPOINT_LABEL: % intact compound remaining after incubation, Human plasma

Exam item: Consider the compound shown here: CCCCCC(=O)N[C@H]1CSCc2cc(cc(CN3CCN(C(=O)CN4CCN(CC(=O)O)CCN(CC(=O)O)CCN(CC(=O)O)CC4)CC3)c2)CSC[C@@H](C(=O)N[C@@H](CC(=O)O)C(N)=O)NC(=O)[C@H](Cc2ccccc2)NC(=O)[C@H](CCC(N)=O)NC(=O)[C@H]([C@@H](C)O)NC(=O)[C@@H]2CCCN2C(=O)[C@@H]2CCCN2C1=O [3BP-3407] (Hexanoyl-CPPTQFCD-NH2; linker 1-7 via X13) What is its recorded % intact compound remaining after incubation, Human plasma?
Marked response: 100% (24 h)

Exam item: What about this compound? CCCCCC(=O)N[C@H]1CSCc2cc(CSCCNC(=O)CN3CCN(CC(=O)O)CCN(CC(=O)O)CCN(CC(=O)O)CC3)cc(c2)CSC[C@@H](C(=O)O)NC(=O)[C@H](Cc2ccccc2)NC(=O)[C@H](CCC(N)=O)NC(=O)[C@H]([C@@H](C)O)NC(=O)[C@@H]2CCCN2C(=O)[C@@H]2CCCN2C1=O [3BP-3554]
Marked response: 100% (24 h)

Exam item: Another compound: CCCCCC(=O)N[C@H]1CSCc2cc(cc(CN3CCN(C(=O)CN4CCN(CC(=O)O)CCN(CC(=O)O)CCN(CC(=O)O)CC4)CC3)c2)CSC[C@@H](C(=O)N[C@@H](CC(=O)O)C(N)=O)NC(=O)[C@H](Cc2ccccc2)NC(=O)[C@H](CCC(N)=O)NC(=O)[C@H]([C@@H](C)O)NC(=O)[C@@H]2CCCN2C(=O)[C@@H]2CCCN2C1=O [3BP-3590] (Hexanoyl-CPPTQFCD-NH2; linker 1-7 via X13)
Marked response: 94% (24 h)

Exam item: Can you check CCCCCC(=O)N[C@H]1CSCc2cc(CSCCNC(=O)CN3CCN(CC(=O)O)CCN(CC(=O)O)CCN(CC(=O)O)CC3)cc(c2)CSC[C@@H](C(=O)O)NC(=O)[C@H](Cc2ccccc2)NC(=O)[C@H](CCC(N)=O)NC(=O)[C@H]([C@@H](C)O)NC(=O)[C@@H]2CCCN2C(=O)[C@@H]2CCCN2C1=O [3BP-3623] next?
Marked response: 100% (24 h)

* * *

- EXPERIMENT: Pharmacokinetic study in mice (plasma, NCA)
- RUN_CONDITIONS: mouse, intravenous, 4 nmol/kg
ENDPOINT_LABEL: C0 (nM)
Report as a plain number; the unit nM is understood.

Exam item: Need C0 of `CCCCCC(=O)N[C@H]1CSCc2cc(CSCCNC(=O)CN3CCN(CC(=O)O)CCN(CC(=O)O)CCN(CC(=O)O)CC3)cc(c2)CSC[C@@H](C(=O)O)NC(=O)[C@H](Cc2ccccc2)NC(=O)[C@H](CCC(N)=O)NC(=O)[C@H]([C@@H](C)O)NC(=O)[C@@H]2CCCN2C(=O)[C@@H]2CCCN2C1=O` , thanks.
Marked response: 17.6

* * *

Numbered stars: 1 amine (or outer) side, 2 acyl side, 3 side chain; on linkers, the order of the positions; unused ones are H or OH. Bridge positions count the residues as written; N and C are the ends. Square brackets hold non-standard residues; d marks the D form. Peptide text beside a SMILES is read from it. * marks the point of attachment. X13 = O=C(O)CN1CCN(CC(=O)O)CCN(CC(=O)N2CCN(Cc3cc(C[*:1])cc(C[*:2])c3)CC2)CCN(CC(=O)O)CC1; Oic = O=C(O)[C@@H]1C[C@@H]2CCCC[C@@H]2N1; mXylylene = c1cc(C[*:1])cc(C[*:2])c1; Pentanesulfonyl = CCCCCS(=O)(=O)*; Hexanoyl = CCCCCC(=O)*
Assay system FAP-expressing human WI-38 fibroblasts (Homo sapiens, UniProt Q12884); read-out recorded as IC50.

CCCCCS(=O)(=O)N[C@H]1CSCc2cc(cc(CN3CCN(C(=O)CN4CCN(CC(=O)O)CCN(CC(=O)O)CCN(CC(=O)O)CC4)CC3)c2)CSC[C@@H](C(=O)N[C@@H](CC(=O)O)C(N)=O)NC(=O)[C@H](Cc2ccccc2)NC(=O)[C@H](CCC(N)=O)NC(=O)[C@H]([C@@H](C)O)NC(=O)[C@@H]2CCCN2C(=O)[C@@H]2CCCN2C1=O [3BP-3692] (Pentanesulfonyl-CPPTQFCD-NH2; linker 1-7 via X13) ... < 0.01 µM
CSCC[C@H](NC(C)=O)C(=O)N[C@H]1CSCc2cccc(c2)CSC[C@@H](C(=O)N[C@@H](CC(=O)O)C(=O)N[C@@H](Cc2c[nH]cn2)C(=O)N[C@@H](Cc2ccccc2)C(=O)N[C@@H](CCCNC(=N)N)C(=O)N[C@@H](CC(=O)O)C(N)=O)NC(=O)[C@H](Cc2ccccc2)NC(=O)[C@H](CCC(=O)O)NC(=O)[C@H]([C@@H](C)O)NC(=O)[C@@H]2C[C@@H]3CCCC[C@@H]3N2C(=O)[C@@H]2CCCN2C1=O [3BP-3217] (Ac-MCP[Oic]TEFCDHFRD-NH2; linker 2-8 via mXylylene) ... 0.1 to 0.794 µM
CCCCCC(=O)N[C@H]1CSCc2cc(CSCCNC(=O)CN3CCN(CC(=O)O)CCN(CC(=O)O)CCN(CC(=O)O)CC3)cc(c2)CSC[C@@H](C(=O)N[C@H](CC(=O)O)Cc2ccccc2)NC(=O)[C@H](Cc2ccccc2)NC(=O)[C@H](CCC(N)=O)NC(=O)[C@H]([C@@H](C)O)NC(=O)[C@@H]2CCCN2C(=O)[C@@H]2CCCN2C1=O [3BP-3660] ... < 0.01 µM

Exam item: I'm curious: which IC50 was measured for CCCCCC(=O)N[C@H]1CSCc2cc(cc(CN3CCN(C(=O)CN4CCN(CC(=O)O)CCN(CC(=O)O)CCN(CC(=O)O)CC4)CC3)c2)CSC[C@@H](C(=O)N[C@@H](CC(=O)O)C(N)=O)NC(=O)[C@H](Cc2ccccc2)NC(=O)[C@H](C)NC(=O)[C@H]([C@@H](C)O)NC(=O)[C@@H]2CCCN2C(=O)[C@@H]2CCCN2C1=O [3BP-3739] (Hexanoyl-CPPTAFCD-NH2; linker 1-7 via X13) tested on FAP-expressing human WI-38 fibroblasts (Homo sapiens, UniProt Q12884)?
Marked response: 0.1 to 0.794 µM

Exam item: And for CCCCCC(=O)N[C@H]1CSCc2cc(CSCCNC(=O)CN3CCN(CC(=O)O)CCN(CC(=O)O)CCN(CC(=O)O)CC3)cc(c2)CSC[C@@H](C(=O)O)NC(=O)[C@H](Cc2ccccc2C(F)(F)F)NC(=O)[C@H](CCC(N)=O)NC(=O)[C@H]([C@@H](C)O)NC(=O)[C@@H]2CCCN2C(=O)[C@@H]2CCCN2C1=O [3BP-3680] ?
Marked response: < 0.01 µM
